Biological target: 5-HT2A (Homo sapiens (Human))
Assay: 5-HT2A Gq-mediated calcium flux functional assay
Assay type: cell-based
readout type: EC50

For the compound CCN(C)CCc1c[nH]c2c(F)c(F)c(F)cc12 [compound 164] , give its reported EC50.
6.46 nM

For the compound C=CCN(C)CCc1c[nH]c2ccc(F)cc12 [Example 10] , give its reported EC50.
0.479 nM

For the compound CCCN(CCC)CCc1c[nH]c2ccc(F)cc12 [Example 5] , give its reported EC50.
0.724 nM

For the compound CCCN(CC)CCc1c[nH]c2c(F)c(F)c(F)cc12 [compound 165] , give its reported EC50.
4.57 nM

For the compound CCN(C)CCc1c[nH]c2c(Br)cc(F)cc12 [compound 174] , give its reported EC50.
18.6 nM

For the compound C=CCN(CC)CCc1c[nH]c2ccc(F)cc12 [compound 36] , give its reported EC50.
1.2 nM

***
For the compound CCC(C)N(CCc1c[nH]c2ccc(F)cc12)C(C)C (stereo not drawn) [compound 32] , give its reported EC50.
1.12 nM

For the compound CN1CCC[C@@H]1Cc1c[nH]c2ccc(F)cc12 [compound 28] , give its reported EC50.
2.34 nM

----------
Molecular target: 5-HT2A (Homo sapiens (Human))
Assay: 5-HT2A Gq-mediated calcium flux functional assay
Assay type: cell-based
Details: IA = Inactive; N=1-3
Recorded measurements of 5-HT2A-Ca2+ FLUX Emax (% 5-HT), one per entry
Your answer is read as % 5-HT, so omit the unit and give the number.

For the molecule CCN(C)CCc1c[nH]c2c(F)c(F)c(F)cc12 , give its reported 5-HT2A-Ca2+ FLUX Emax (% 5-HT).
76.1

For the molecule C#CCN(CCC)CCc1c[nH]c2c(F)cccc12 , give its reported 5-HT2A-Ca2+ FLUX Emax (% 5-HT).
80.7

For the molecule C#CCN(CCc1c[nH]c2ccc(F)cc12)C(C)CC (stereo not shown) , give its reported 5-HT2A-Ca2+ FLUX Emax (% 5-HT).
97.8

For the next question, use this molecule.
For the molecule CCN(CCc1c[nH]c2ccc(F)cc12)C(C)C , give its reported 5-HT2A-Ca2+ FLUX Emax (% 5-HT).
102.6

----------
readout type: melting point

For the molecule CN1CCC[C@@H]1Cc1c[nH]c2ccc(F)cc12 , give its reported melting point.
127.6 to 131.7 °C

For the molecule CN1CCC[C@H]1Cc1c[nH]c2ccc(F)cc12 , give its reported melting point.
135 to 136.4 °C

For the molecule CCCN(CC)CC(=O)c1c[nH]c2ccc(F)cc12 , give its reported melting point.
203.4 to 205.6 °C

----------
Recorded measurements of melting point, one per entry
Structures can show the parent of a compound that is named as a salt.

For the molecule CC(C1CC1)N(C)CCc1c[nH]c2ccc(F)cc12 (stereo not drawn) (as salt: HCl) , give its reported melting point.
100.7 to 101.5 °C

For the molecule CCN(CCc1c[nH]c2ccc(F)cc12)C1CCC1 [compound 31] , give its reported melting point.
89.4 to 90.3 °C

For the molecule C=CCN(CC)CCc1c[nH]c2ccc(F)cc12 (as salt: hydrochloride) [compound 36] , give its reported melting point.
123.7 to 128.5 °C

***
For the molecule CCC(C)N(CCc1c[nH]c2ccc(F)cc12)C(C)C (stereo not drawn) (as salt: HCl) [compound 32] , give its reported melting point.
193.7 to 195 °C

For the molecule C=CCN(CCc1c[nH]c2ccc(F)cc12)C1CCC1 (as salt: HCl) [Example 14] , give its reported melting point.
196.3 to 199 °C

For the molecule CCCN(CC)CCc1c[nH]c2ccc(F)c(F)c12 (as salt: fumarate) [compound 21] , give its reported melting point.
182.1 to 183.3 °C

For the molecule CCCN(CCc1c[nH]c2ccc(F)cc12)C(C)C (as salt: HCl) [Example 4] , give its reported melting point.
155.8 to 158 °C

For the molecule CC(C)C(C)N(C)CCc1c[nH]c2ccc(F)cc12 (stereo not drawn) (as salt: hydrochloride) , give its reported melting point.
157.5 to 158.1 °C

For the molecule CC(C)N(CCc1c[nH]c2ccc(F)cc12)C1CC1 [compound 168] , give its reported melting point.
196.4 to 196.8 °C

For the molecule CN(CCc1c[nH]c2ccc(F)cc12)C1CCC1 [compound 51] , give its reported melting point.
219.4 to 219.7 °C

For the molecule CCCN(CCc1c[nH]c2c(F)cccc12)C1CCC1 (as salt: hydrochloride) [compound 162] , give its reported melting point.
231.7 to 237.2 °C

For the molecule CCCN(CC)CCc1c[nH]c2cc(Cl)c(F)cc12 (as salt: hydrochloride) [compound 37] , give its reported melting point.
231 to 232.6 °C

For the molecule CN1CCC(c2c[nH]c3ccc(F)cc23)C1 (stereo not drawn) [compound 15] , give its reported melting point.
122.8 to 125.1 °C

For the molecule CC(C)CN(C)CCc1c[nH]c2ccc(F)cc12 (as salt: hydrochloride) [compound 39] , give its reported melting point.
150 to 151.5 °C

For the molecule CC(C)N(CCc1c[nH]c2ccc(F)cc12)C1CCC1 (as salt: hydrochloride) [compound 40] , give its reported melting point.
191.6 to 193 °C

For the molecule CCN(C)CCc1c[nH]c2c(F)cc(F)cc12 (as salt: hydrochloride) [compound 69] , give its reported melting point.
152.7 to 153.5 °C

For the molecule C=CCN(CCc1c[nH]c2ccc(F)cc12)C(C)CC (stereo not drawn) (as salt: HCl) [compound 16] , give its reported melting point.
157 to 161.8 °C

For the molecule CCCN(CCC)CCc1c[nH]c2ccc(F)cc12 (as salt: HCl) [Example 5] , give its reported melting point.
187.5 to 188 °C

----------
Recorded measurements of 5-HT2A pKi ± SEM, one per entry
Target: Serotonin 5-HT2A (human) (Homo sapiens (Human))
Experiment: 5-HT2A receptor binding, [3H]-ketanserin competition in membrane fractions
Conditions: 1 nM [3H]-ketanserin, Cheng-Prusoff, N=1-3
Provide a numeric answer; units are not to be included.

Below: 10 compounds and their reported 5-HT2A pKi ± SEM.
For the compound CC(C)N(CC#N)CCc1c[nH]c2ccc(F)cc12 , give its reported 5-HT2A pKi ± SEM.
5.41

For the compound CCN(C)CCc1c[nH]c2cc(C)c(F)cc12 , give its reported 5-HT2A pKi ± SEM.
5.96

For the compound CCC(C)N(C)CCc1c[nH]c2ccc(F)cc12 (centres unmarked) , give its reported 5-HT2A pKi ± SEM.
6.23

For the compound CCN(C)CCc1c[nH]c2c(F)c(F)c(F)cc12 , give its reported 5-HT2A pKi ± SEM.
6.90

For the compound CCCN(CC)CCc1c[nH]c2ccc(F)cc12 , give its reported 5-HT2A pKi ± SEM.
6.06

For the compound CCN(C)CCc1c[nH]c2c(C)cc(F)cc12 , give its reported 5-HT2A pKi ± SEM.
6.05

For the compound CCN(C)CCc1c[nH]c2ccc(F)cc12 , give its reported 5-HT2A pKi ± SEM.
6.66

For the compound CCCN(CCc1c[nH]c2ccc(F)cc12)C1CC1 , give its reported 5-HT2A pKi ± SEM.
6.50

For the compound C=CCN(CCc1c[nH]c2ccc(F)cc12)C1CCC1 , give its reported 5-HT2A pKi ± SEM.
6.09

For the compound CCCN(CC)CCc1c[nH]c2cc(Cl)c(F)cc12 , give its reported 5-HT2A pKi ± SEM.
6.04

***
For the compound CCCN(C)CCc1c[nH]c2ccc(F)cc12 , give its reported 5-HT2A pKi ± SEM.
6.72

For the compound CN1CCC(c2c[nH]c3ccc(F)cc23)C1 (centres unmarked) , give its reported 5-HT2A pKi ± SEM.
6.98

For the compound C=CC(C)N(C)CCc1c[nH]c2ccc(F)cc12 (centres unmarked) , give its reported 5-HT2A pKi ± SEM.
6.25

For the compound CN1CCC(c2c[nH]c3c(F)cccc23)C1 (centres unmarked) , give its reported 5-HT2A pKi ± SEM.
6.43

For the compound CCCN(CC)CCc1c[nH]c2c(F)cc(OC)cc12 , give its reported 5-HT2A pKi ± SEM.
6.15

For the compound CCCN(CC)CCc1c[nH]c2cc(F)c(F)cc12 , give its reported 5-HT2A pKi ± SEM.
6.15

For the compound CCCN(CCc1c[nH]c2ccc(F)cc12)C(C)CC (centres unmarked) , give its reported 5-HT2A pKi ± SEM.
5.97

For the compound CCCN(CC)CCc1c[nH]c2c(F)c(F)ccc12 , give its reported 5-HT2A pKi ± SEM.
6.52

For the compound CCCN(CC)CCc1c[nH]c2ccc(F)c(F)c12 , give its reported 5-HT2A pKi ± SEM.
6.15

For the compound CCN(C)CCc1c[nH]c2c(Cl)cc(F)cc12 , give its reported 5-HT2A pKi ± SEM.
6.62

For the compound CN1CCC[C@@H]1Cc1c[nH]c2cc(F)c(F)cc12 , give its reported 5-HT2A pKi ± SEM.
6.90

For the compound CC(C)CN(C)CCc1c[nH]c2ccc(F)cc12 , give its reported 5-HT2A pKi ± SEM.
6.12

For the compound CN1CCC[C@@H]1Cc1c[nH]c2ccc(F)cc12 , give its reported 5-HT2A pKi ± SEM.
7.19

For the compound CCN(C)CCc1c[nH]c2cc(F)c(Cl)cc12 , give its reported 5-HT2A pKi ± SEM.
6.93

For the compound CC(C)N(CCc1c[nH]c2ccc(F)cc12)C1CC1 , give its reported 5-HT2A pKi ± SEM.
6.18

For the compound Fc1ccc2[nH]cc(CCN(C3CCC3)C3CC3)c2c1 , give its reported 5-HT2A pKi ± SEM.
6.58

For the compound CCN(C)CCc1c[nH]c2c(F)cc(OC)cc12 , give its reported 5-HT2A pKi ± SEM.
6.71
